assay-target: Histone deacetylase 11 (Homo sapiens, UniProt Q96DB2)
Sequence (Q96DB2 whole entry, the tested form may be a part): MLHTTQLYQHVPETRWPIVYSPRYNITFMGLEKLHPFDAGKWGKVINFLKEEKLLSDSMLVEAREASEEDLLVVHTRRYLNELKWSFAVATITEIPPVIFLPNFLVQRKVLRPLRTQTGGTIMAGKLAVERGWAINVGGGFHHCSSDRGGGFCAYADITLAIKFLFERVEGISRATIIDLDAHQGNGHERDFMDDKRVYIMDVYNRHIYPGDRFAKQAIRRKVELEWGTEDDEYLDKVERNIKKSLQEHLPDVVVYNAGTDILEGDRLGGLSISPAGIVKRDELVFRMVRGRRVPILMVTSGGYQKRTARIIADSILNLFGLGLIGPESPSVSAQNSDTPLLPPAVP
assay-notes: Inhibition of recombinant C-terminal His-tagged human HDAC11 (1 to 347 residues) expressed in Baculovirus infected insect cells using RHKK-Ac as substrate by fluorimetric assay
result-type: IC50 (nM)
Answer format: numeric, nM implied, no suffix.

- line-notation: "Nc1ccccc1NC(=O)CCCCCN1C(=O)c2cccc3c(N4CCOCC4)ccc(c23)C1=O"
  unit-symbol: "nM"
  IC50: 8120
- line-notation: "O=C(CCCCCN1C(=O)c2cccc3c(Nc4cccc(F)c4)ccc(c23)C1=O)NO"
  unit-symbol: "nM"
  IC50: 210
- line-notation: "O=C(CCCCCN1C(=O)c2cccc3c([N+](=O)[O-])ccc(c23)C1=O)NO"
  unit-symbol: "nM"
  IC50: 1020

Enquiry: So what does the record say about IC50 for CCCNc1ccc2c3c(cccc13)C(=O)N(CCCCCC(=O)NO)C2=O ?
Return: 80

Enquiry: So what does the record say about IC50 for CN(Cc1ccccc1)c1ccc2c3c(cccc13)C(=O)N(CCCCCC(=O)NO)C2=O ?
Return: 1220

====

Organism: Homo sapiens
assay-notes: Selectivity ratio of IC50 for recombinant full length C-terminal FLAG/His-tagged human HDAC1 (1 to 482 residues) to IC50 for recombinant N-terminal GST-tagged human HDAC6 (1 to 1215 residues)
result-type: Ratio IC50
Answer field: number only, no words.

Worked cases, Ratio IC50 given:
- line-notation: "CN(Cc1ccccc1)c1ccc2c3c(cccc13)C(=O)N(CCCCCC(=O)NO)C2=O"
  Ratio IC50: 245
- line-notation: "O=C(CCCCCN1C(=O)c2cccc3c(Nc4cccc(F)c4)ccc(c23)C1=O)NO"
  Ratio IC50: 219

Enquiry: So what does the record say about Ratio IC50 for O=C(CCCCCN1C(=O)c2cccc3c(N4CCOCC4)ccc(c23)C1=O)NO ?
Return: 119

Enquiry: So what does the record say about Ratio IC50 for O=C(CCCCCN1C(=O)c2cccc3c([N+](=O)[O-])ccc(c23)C1=O)NO ?
Return: 111

Enquiry: So what does the record say about Ratio IC50 for O=C(CCCCCN1C(=O)c2cccc3c(Nc4ccccc4)ccc(c23)C1=O)NO ?
Return: 183

====

assay-target: Histone deacetylase 3/Nuclear receptor corepressor 2 (HDAC3/NCoR2) (Homo sapiens, UniProt O15379)
Sequence (O15379 whole entry): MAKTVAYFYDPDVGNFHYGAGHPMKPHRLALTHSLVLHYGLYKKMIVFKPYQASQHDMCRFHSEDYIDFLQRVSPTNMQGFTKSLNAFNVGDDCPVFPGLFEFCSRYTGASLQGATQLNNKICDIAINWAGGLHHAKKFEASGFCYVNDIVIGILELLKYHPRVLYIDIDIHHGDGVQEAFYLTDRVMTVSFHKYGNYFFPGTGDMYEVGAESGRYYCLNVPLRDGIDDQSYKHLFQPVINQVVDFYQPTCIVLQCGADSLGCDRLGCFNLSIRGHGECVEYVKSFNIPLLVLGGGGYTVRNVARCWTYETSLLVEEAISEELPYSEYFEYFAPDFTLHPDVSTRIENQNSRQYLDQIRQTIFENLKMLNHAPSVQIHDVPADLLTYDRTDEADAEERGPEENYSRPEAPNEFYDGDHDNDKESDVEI
Sequence (Q9Y618 whole entry, further chain): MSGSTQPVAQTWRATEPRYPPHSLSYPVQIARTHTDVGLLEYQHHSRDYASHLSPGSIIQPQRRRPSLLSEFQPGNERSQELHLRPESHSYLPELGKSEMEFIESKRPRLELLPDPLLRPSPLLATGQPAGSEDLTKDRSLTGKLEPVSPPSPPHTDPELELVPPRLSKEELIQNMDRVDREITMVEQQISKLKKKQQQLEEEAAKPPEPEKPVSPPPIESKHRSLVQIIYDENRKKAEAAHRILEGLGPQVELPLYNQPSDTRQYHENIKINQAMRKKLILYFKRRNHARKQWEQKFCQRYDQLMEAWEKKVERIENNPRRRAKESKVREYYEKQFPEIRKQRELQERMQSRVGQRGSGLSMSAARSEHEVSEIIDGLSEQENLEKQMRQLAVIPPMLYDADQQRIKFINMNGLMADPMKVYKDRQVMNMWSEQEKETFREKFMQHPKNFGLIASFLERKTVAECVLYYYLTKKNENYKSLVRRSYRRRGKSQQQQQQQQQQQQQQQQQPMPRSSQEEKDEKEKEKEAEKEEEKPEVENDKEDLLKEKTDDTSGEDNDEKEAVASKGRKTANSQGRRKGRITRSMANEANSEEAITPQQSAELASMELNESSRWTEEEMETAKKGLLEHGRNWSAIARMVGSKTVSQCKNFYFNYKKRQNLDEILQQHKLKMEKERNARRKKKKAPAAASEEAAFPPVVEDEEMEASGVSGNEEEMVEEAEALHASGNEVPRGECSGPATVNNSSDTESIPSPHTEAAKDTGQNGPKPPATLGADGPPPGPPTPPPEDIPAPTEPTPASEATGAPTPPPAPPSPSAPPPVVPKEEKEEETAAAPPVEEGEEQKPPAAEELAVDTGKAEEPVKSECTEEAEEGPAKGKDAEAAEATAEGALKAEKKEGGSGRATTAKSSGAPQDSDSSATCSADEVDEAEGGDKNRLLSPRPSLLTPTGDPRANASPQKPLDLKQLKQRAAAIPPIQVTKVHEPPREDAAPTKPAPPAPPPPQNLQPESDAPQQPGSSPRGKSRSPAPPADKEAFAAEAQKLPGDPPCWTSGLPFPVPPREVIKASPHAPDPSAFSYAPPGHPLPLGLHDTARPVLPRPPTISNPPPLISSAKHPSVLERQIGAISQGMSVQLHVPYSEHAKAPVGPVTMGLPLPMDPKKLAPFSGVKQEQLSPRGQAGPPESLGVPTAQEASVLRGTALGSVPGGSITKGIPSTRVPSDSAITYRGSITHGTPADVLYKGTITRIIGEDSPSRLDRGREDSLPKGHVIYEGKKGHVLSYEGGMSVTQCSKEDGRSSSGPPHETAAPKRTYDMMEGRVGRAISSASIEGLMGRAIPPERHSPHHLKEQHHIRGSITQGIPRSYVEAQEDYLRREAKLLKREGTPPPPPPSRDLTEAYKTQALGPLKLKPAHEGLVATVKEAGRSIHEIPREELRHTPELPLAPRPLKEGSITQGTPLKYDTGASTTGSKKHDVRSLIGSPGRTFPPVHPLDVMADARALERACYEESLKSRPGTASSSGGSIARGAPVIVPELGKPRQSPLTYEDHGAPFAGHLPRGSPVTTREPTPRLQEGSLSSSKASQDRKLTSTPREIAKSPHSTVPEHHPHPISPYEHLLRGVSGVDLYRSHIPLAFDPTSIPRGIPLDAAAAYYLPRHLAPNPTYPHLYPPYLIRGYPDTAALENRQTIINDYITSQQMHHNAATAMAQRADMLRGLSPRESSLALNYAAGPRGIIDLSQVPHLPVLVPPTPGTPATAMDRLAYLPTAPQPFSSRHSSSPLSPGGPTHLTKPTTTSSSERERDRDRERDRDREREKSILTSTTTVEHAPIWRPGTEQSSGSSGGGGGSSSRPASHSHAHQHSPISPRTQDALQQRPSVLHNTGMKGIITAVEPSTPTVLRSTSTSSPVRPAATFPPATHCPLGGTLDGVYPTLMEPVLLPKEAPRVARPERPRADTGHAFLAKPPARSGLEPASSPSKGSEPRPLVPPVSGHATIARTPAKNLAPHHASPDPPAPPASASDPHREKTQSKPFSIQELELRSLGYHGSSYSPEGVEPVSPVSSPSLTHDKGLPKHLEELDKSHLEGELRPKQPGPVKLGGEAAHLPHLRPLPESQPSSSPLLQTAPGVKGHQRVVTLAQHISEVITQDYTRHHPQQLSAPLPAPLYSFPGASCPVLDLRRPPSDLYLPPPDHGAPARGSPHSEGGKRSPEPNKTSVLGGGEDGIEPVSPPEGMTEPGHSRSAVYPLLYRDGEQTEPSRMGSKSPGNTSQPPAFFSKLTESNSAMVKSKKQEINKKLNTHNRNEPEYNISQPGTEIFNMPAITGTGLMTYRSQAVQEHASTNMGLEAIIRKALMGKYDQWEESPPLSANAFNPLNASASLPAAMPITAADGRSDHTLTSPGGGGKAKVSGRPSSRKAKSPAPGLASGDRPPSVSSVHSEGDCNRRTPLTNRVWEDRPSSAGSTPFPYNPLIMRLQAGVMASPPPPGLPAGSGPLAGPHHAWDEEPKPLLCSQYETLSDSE
result-type: IC50 (nM)
Answer format: numeric, nM implied, no suffix.

Worked cases, IC50 given:
- line-notation: "O=C(CCCCCN1C(=O)c2cccc3c(NCc4ccccc4)ccc(c23)C1=O)NO"
  unit-symbol: "nM"
  value-reported: 360
- line-notation: "CCCNc1ccc2c3c(cccc13)C(=O)N(CCCCCC(=O)NO)C2=O"
  unit-symbol: "nM"
  value-reported: 110
- line-notation: "Nc1ccccc1NC(=O)CCCCCN1C(=O)c2cccc3c(N4CCOCC4)ccc(c23)C1=O"
  unit-symbol: "nM"
  value-reported: 290

Now let's try a different one.
Enquiry: So what does the record say about IC50 for Nc1ccccc1NC(=O)CCCCCN1C(=O)c2cccc3cccc(c23)C1=O ?
Return: 200

====

assay-target: Histone deacetylase 5 (Homo sapiens, UniProt Q9UQL6)
assay-notes: Inhibition of recombinant C-terminal His-tagged human HDAC5 (656 to 1122 residues) expressed in insect cells using Boc-K(Ac)-AMC as substrate by fluorimetric assay
result-type: IC50 (µM)
Answer format: numeric, µM implied, no suffix.

- line-notation: "O=C(CCCCCN1C(=O)c2cccc3c(NCc4ccccc4)ccc(c23)C1=O)NO"
  unit-symbol: "µM"
  IC50: 3.4

Now let's try a different one.
Enquiry: So what does the record say about IC50 for CCCNc1ccc2c3c(cccc13)C(=O)N(CCCCCC(=O)NO)C2=O ?
Return: 5.3

====

assay-target: Histone deacetylase 9 (Homo sapiens)
Sequence (Q9UKV0 whole entry): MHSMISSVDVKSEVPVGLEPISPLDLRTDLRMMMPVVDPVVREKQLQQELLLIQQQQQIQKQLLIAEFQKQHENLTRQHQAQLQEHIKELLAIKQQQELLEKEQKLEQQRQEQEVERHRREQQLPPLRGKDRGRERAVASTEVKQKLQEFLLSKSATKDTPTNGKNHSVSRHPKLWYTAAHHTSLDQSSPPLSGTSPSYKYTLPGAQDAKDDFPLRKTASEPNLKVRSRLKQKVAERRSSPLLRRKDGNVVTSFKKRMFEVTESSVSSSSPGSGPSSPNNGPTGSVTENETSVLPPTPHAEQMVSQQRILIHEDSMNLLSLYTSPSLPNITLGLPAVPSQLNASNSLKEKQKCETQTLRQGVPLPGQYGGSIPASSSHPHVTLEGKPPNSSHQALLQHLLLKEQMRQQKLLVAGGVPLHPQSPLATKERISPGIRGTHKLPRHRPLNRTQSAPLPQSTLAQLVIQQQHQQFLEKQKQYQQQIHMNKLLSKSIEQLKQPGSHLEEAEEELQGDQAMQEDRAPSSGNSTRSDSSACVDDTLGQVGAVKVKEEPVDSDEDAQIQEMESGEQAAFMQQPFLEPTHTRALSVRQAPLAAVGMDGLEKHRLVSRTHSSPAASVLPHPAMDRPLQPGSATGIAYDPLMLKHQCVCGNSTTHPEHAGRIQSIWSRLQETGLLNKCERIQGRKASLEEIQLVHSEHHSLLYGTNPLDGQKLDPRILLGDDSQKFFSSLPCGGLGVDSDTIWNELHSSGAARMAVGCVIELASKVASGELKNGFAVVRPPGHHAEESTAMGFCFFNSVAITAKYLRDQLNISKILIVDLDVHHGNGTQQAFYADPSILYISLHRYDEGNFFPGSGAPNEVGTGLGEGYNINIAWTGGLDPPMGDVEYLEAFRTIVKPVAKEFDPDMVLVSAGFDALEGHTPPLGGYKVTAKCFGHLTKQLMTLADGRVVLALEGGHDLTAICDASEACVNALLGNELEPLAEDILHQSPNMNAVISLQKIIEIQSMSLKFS
result-type: pIC50
Bear in mind: pIC50 is minus log10 of a mol/L concentration; give just that figure.

Enquiry: So what does the record say about pIC50 for O=C(CCCCCN1C(=O)c2cccc3c(NCc4ccccc4)ccc(c23)C1=O)NO ?
Return: 5.03

====

pIC50 overview
assay-target: Protein deacetylase HDAC6 (Homo sapiens, UniProt Q9UBN7)
assay-notes: Inhibition of recombinant N-terminal GST-tagged human HDAC6 (1 to 1215 residues) expressed in Baculovirus infected insect cells using RHKK-Ac as substrate by fluorimetric assay
Bear in mind: pIC50 is minus log10 of a mol/L concentration; give just that figure.

- line-notation: "O=C(CCCCCN1C(=O)c2cccc3c(NCc4ccccc4)ccc(c23)C1=O)NO"
  pIC50: 8.46
- line-notation: "CCCNc1ccc2c3c(cccc13)C(=O)N(CCCCCC(=O)NO)C2=O"
  pIC50: 8.32
- line-notation: "O=C(CCCCCN1C(=O)c2cccc3c(N4CCOCC4)ccc(c23)C1=O)NO"
  pIC50: 7.92

Now let's try a different one.
Enquiry: Form entry - test system: Protein deacetylase HDAC6 (Homo sapiens, UniProt Q9UBN7); read-out: pIC50; molecule: O=C(CCCCCN1C(=O)c2cccc3c(Nc4cccc(F)c4)ccc(c23)C1=O)NO
Return: 7.85

====

assay-target: Protein deacetylase HDAC6 (Homo sapiens)
Sequence (Q9UBN7 whole entry): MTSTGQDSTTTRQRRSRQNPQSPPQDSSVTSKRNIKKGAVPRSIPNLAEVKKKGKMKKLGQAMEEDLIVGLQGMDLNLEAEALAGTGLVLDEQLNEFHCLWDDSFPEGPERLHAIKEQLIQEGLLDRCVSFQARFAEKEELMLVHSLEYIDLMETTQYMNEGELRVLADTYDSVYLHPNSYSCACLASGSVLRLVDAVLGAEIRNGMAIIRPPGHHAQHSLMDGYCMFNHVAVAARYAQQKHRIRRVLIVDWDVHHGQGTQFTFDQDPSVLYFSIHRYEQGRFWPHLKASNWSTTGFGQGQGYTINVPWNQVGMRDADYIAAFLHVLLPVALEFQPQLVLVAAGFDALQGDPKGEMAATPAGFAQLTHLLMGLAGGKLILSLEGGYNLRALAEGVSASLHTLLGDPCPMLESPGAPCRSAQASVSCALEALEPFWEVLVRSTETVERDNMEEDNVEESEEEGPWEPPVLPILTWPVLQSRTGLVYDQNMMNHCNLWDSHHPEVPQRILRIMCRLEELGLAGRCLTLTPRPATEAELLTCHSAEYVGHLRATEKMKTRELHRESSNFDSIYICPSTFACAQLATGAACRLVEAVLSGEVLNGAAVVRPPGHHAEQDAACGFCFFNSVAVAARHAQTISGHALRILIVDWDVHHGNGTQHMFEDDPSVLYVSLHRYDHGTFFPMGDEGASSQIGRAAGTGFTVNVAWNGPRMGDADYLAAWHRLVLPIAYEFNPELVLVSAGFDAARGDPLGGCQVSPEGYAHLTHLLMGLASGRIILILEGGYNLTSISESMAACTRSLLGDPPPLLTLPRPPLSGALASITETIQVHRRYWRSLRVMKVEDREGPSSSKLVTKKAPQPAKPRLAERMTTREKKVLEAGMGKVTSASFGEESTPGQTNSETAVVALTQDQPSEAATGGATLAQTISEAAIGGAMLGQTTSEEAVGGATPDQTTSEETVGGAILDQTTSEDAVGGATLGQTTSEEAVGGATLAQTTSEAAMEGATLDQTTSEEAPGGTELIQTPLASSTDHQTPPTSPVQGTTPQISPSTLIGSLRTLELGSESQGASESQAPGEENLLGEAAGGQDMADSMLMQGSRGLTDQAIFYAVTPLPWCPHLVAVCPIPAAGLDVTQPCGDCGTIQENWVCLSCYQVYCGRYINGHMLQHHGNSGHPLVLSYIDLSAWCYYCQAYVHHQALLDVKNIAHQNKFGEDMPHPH
assay-notes: Inhibition of recombinant N-terminal GST-tagged human HDAC6 (1 to 1215 residues) expressed in Baculovirus infected insect cells using RHKK-Ac as substrate by fluorimetric assay
IC50 overview
Answer format: numeric, nM implied, no suffix.

- line-notation: "O=C(CCCCCN1C(=O)c2cccc3c([N+](=O)[O-])ccc(c23)C1=O)NO"
  IC50 [nM]: 5.7
- line-notation: "O=C(CCCCCN1C(=O)c2cccc3c(Nc4ccccc4)ccc(c23)C1=O)NO"
  IC50 [nM]: 13

Now let's try a different one.
Enquiry: So what does the record say about IC50 for CN(Cc1ccccc1)c1ccc2c3c(cccc13)C(=O)N(CCCCCC(=O)NO)C2=O ?
Return: 9.7
